Hello, the source for this data is patent US20250135039A1, in case you need it.

- Test system: U251 human glioblastoma cell line
- TEST_SUMMARY: in vitro FM-HCR assay of MGMT activity (mPlum O^6MeG reporter plasmid)
- Format: cell-based
- RUN_CONDITIONS: MGMT activity (a.u.) in O^6BG divided by DMSO x 100; higher values indicate resistance
Entry class follows Relative MGMT activity (%): range A = under 20%, range B = from 20% up to 50%, range C = 50% and over

MOLECULE	QUALITATIVE_LABEL
R135L: MGMT polypeptide with mutation R135L (protein) MDKDCEMKRTTLDSPLGKLELSGCEQGLHEIKLLGKGTSAADAVEVPAPAAVLGGPEPLMQCTAWLNAYFHQPEAIEEFPVPALHHPVFQQESFTRQVLWKLLKVVKFGEVISYQQLAALAGNPKAARAVGGAMLGNPVPILIPCHRVVCSSGAVGNYSGGLAVKEWLLAHEGHRLGKPGLGGSSGLAGAWLKGAGATSGSPPAGRN	range C
S159Y: MGMT polypeptide with mutation S159Y (protein) MDKDCEMKRTTLDSPLGKLELSGCEQGLHEIKLLGKGTSAADAVEVPAPAAVLGGPEPLMQCTAWLNAYFHQPEAIEEFPVPALHHPVFQQESFTRQVLWKLLKVVKFGEVISYQQLAALAGNPKAARAVGGAMRGNPVPILIPCHRVVCSSGAVGNYYGGLAVKEWLLAHEGHRLGKPGLGGSSGLAGAWLKGAGATSGSPPAGRN	range A
R135G: MGMT polypeptide with mutation R135G (protein) MDKDCEMKRTTLDSPLGKLELSGCEQGLHEIKLLGKGTSAADAVEVPAPAAVLGGPEPLMQCTAWLNAYFHQPEAIEEFPVPALHHPVFQQESFTRQVLWKLLKVVKFGEVISYQQLAALAGNPKAARAVGGAMGGNPVPILIPCHRVVCSSGAVGNYSGGLAVKEWLLAHEGHRLGKPGLGGSSGLAGAWLKGAGATSGSPPAGRN	range A
G160H: MGMT polypeptide with mutation G160H (protein) MDKDCEMKRTTLDSPLGKLELSGCEQGLHEIKLLGKGTSAADAVEVPAPAAVLGGPEPLMQCTAWLNAYFHQPEAIEEFPVPALHHPVFQQESFTRQVLWKLLKVVKFGEVISYQQLAALAGNPKAARAVGGAMRGNPVPILIPCHRVVCSSGAVGNYSHGLAVKEWLLAHEGHRLGKPGLGGSSGLAGAWLKGAGATSGSPPAGRN	range B
L33Y: MGMT polypeptide with mutation L33Y (protein) MDKDCEMKRTTLDSPLGKLELSGCEQGLHEIKYLGKGTSAADAVEVPAPAAVLGGPEPLMQCTAWLNAYFHQPEAIEEFPVPALHHPVFQQESFTRQVLWKLLKVVKFGEVISYQQLAALAGNPKAARAVGGAMRGNPVPILIPCHRVVCSSGAVGNYSGGLAVKEWLLAHEGHRLGKPGLGGSSGLAGAWLKGAGATSGSPPAGRN	range B
N137F: MGMT polypeptide with mutation N137F (protein) MDKDCEMKRTTLDSPLGKLELSGCEQGLHEIKLLGKGTSAADAVEVPAPAAVLGGPEPLMQCTAWLNAYFHQPEAIEEFPVPALHHPVFQQESFTRQVLWKLLKVVKFGEVISYQQLAALAGNPKAARAVGGAMRGFPVPILIPCHRVVCSSGAVGNYSGGLAVKEWLLAHEGHRLGKPGLGGSSGLAGAWLKGAGATSGSPPAGRN	range C
P138K: MGMT polypeptide with mutation P138K (protein) MDKDCEMKRTTLDSPLGKLELSGCEQGLHEIKLLGKGTSAADAVEVPAPAAVLGGPEPLMQCTAWLNAYFHQPEAIEEFPVPALHHPVFQQESFTRQVLWKLLKVVKFGEVISYQQLAALAGNPKAARAVGGAMRGNKVPILIPCHRVVCSSGAVGNYSGGLAVKEWLLAHEGHRLGKPGLGGSSGLAGAWLKGAGATSGSPPAGRN	range B
P140H: MGMT polypeptide with mutation P140H (protein) MDKDCEMKRTTLDSPLGKLELSGCEQGLHEIKLLGKGTSAADAVEVPAPAAVLGGPEPLMQCTAWLNAYFHQPEAIEEFPVPALHHPVFQQESFTRQVLWKLLKVVKFGEVISYQQLAALAGNPKAARAVGGAMRGNPVHILIPCHRVVCSSGAVGNYSGGLAVKEWLLAHEGHRLGKPGLGGSSGLAGAWLKGAGATSGSPPAGRN	range C
G156I: MGMT polypeptide with mutation G156I (protein) MDKDCEMKRTTLDSPLGKLELSGCEQGLHEIKLLGKGTSAADAVEVPAPAAVLGGPEPLMQCTAWLNAYFHQPEAIEEFPVPALHHPVFQQESFTRQVLWKLLKVVKFGEVISYQQLAALAGNPKAARAVGGAMRGNPVPILIPCHRVVCSSGAVINYSGGLAVKEWLLAHEGHRLGKPGLGGSSGLAGAWLKGAGATSGSPPAGRN	range C
